pIC50 values recorded for Cholinesterase (Homo sapiens)
Bear in mind: pIC50 is minus log10 of a mol/L concentration; give just that figure.

1. Cc1ccccc1NC(=O)Oc1ccc2c(c1)[C@]1(C)CCN(C)O[C@@H]1N2C    5.80
2. CC(C)c1ccc(NC(=O)Oc2ccc3c(c2)[C@]2(C)CC[N@@+](C)([O-])[C@@H]2N3C)cc1    5.28

CNC(=O)Oc1ccc2c(c1)[C@]1(C)CC[N@@+](C)([O-])[C@@H]1N2C on Cholinesterase (Homo sapiens) gives pIC50 = 6.18

CCCCCCCNC(=O)Oc1ccc2c(c1)[C@]1(C)CCN(C)[C@@H]1N2C on Cholinesterase (Homo sapiens) gives pIC50 = 8.30

CCc1ccccc1NC(=O)Oc1ccc2c(c1)[C@]1(C)CC[N@@+](C)([O-])[C@@H]1N2C on Cholinesterase (Homo sapiens) gives pIC50 = 5.77

CCc1ccccc1NC(=O)Oc1ccc2c(c1)[C@]1(C)CCN(C)O[C@@H]1N2C on Cholinesterase (Homo sapiens) gives pIC50 = 6.51

CNC(=O)Oc1ccc2c(c1)[C@]1(C)CCN(C)O[C@@H]1N2C on Cholinesterase (Homo sapiens) gives pIC50 = 7.92

CC(C)c1ccc(NC(=O)Oc2ccc3c(c2)[C@]2(C)CCN(C)O[C@@H]2N3C)cc1 on Cholinesterase (Homo sapiens) gives pIC50 = 7.60

CN1CC[C@@]2(C)c3cc(OC(=O)Nc4ccccc4)ccc3N(C)[C@H]2O1 on Cholinesterase (Homo sapiens) gives pIC50 = 6.09

* * *

assay.system: Acetylcholinesterase (Homo sapiens, UniProt P22303)
Sequence (P22303 whole entry): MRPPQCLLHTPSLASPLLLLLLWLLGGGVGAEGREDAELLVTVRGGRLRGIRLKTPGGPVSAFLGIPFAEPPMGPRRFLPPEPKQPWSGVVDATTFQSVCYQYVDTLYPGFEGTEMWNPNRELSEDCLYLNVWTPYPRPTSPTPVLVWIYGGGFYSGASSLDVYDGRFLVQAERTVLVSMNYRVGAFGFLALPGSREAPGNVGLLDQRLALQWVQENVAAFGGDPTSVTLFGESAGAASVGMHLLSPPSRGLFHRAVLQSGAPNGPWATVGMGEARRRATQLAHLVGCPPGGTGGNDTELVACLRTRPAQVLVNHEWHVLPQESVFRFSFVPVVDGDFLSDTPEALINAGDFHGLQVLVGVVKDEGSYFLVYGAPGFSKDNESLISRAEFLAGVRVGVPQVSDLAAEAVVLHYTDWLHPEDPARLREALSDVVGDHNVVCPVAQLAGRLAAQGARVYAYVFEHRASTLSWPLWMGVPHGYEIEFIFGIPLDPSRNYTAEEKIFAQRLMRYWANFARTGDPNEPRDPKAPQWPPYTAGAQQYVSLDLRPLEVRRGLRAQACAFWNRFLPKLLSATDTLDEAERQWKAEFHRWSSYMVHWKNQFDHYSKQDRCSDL
pIC50: −log10 of the molar value.
Lab note: compare pIC50 against 7. Equal or greater, write condition met. Smaller, write condition not met.

Solved cases (5 shown):
1) CC(C)c1ccc(NC(=O)Oc2ccc3c(c2)[C@]2(C)CC[N@@+](C)([O-])[C@@H]2N3C)cc1    condition not met
2) CC(C)c1ccc(NC(=O)Oc2ccc3c(c2)[C@]2(C)CCN(C)O[C@@H]2N3C)cc1    condition not met
3) CN1c2ccc(OC(=O)Nc3ccccc3)cc2[C@]2(C)CC[N@@+](C)([O-])[C@H]12    condition not met
4) Cc1ccccc1NC(=O)Oc1ccc2c(c1)[C@]1(C)CC[N@@+](C)([O-])[C@@H]1N2C    condition not met
5) Cc1ccccc1NC(=O)Oc1ccc2c(c1)[C@]1(C)CCN(C)O[C@@H]1N2C    condition not met

With those in mind, consider the next compound.
Problem: Form field: pIC50 at least 7? Entry: CCCCCCCNC(=O)Oc1ccc2c(c1)[C@]1(C)CCN(C)[C@@H]1N2C [EPTASTIGMINE]
Solution: condition met

* * *

assay.system: Cholinesterase (Homo sapiens, UniProt P06276)
Sequence (P06276 whole entry): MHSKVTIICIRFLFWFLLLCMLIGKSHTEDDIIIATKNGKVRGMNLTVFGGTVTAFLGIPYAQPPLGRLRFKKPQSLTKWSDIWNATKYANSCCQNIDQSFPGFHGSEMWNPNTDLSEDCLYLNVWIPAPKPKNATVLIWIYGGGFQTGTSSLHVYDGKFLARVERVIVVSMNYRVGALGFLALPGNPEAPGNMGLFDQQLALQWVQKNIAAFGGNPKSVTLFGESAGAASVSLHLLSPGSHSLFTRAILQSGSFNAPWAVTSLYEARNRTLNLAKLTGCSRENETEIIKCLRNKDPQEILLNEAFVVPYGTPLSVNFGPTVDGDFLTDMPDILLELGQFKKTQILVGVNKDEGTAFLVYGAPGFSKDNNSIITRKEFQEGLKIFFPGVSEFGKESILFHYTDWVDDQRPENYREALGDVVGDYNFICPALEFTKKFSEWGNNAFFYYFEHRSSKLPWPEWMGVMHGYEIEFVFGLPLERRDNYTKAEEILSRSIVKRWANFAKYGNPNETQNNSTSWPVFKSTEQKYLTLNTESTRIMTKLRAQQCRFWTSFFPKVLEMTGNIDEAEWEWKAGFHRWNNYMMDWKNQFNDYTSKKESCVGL
pIC50: −log10 of the molar value.
assay.readout: pIC50

Recorded pIC50 (compound CN1c2ccc(OC(=O)Nc3ccccc3)cc2[C@]2(C)CC[N@@+](C)([O-])[C@H]12 ): < 5.00

Recorded pIC50 (compound C/C=C1\[C@H]2C=C(C)C[C@]1(N)c1ccc(=O)[nH]c1C2 ): < 5.00

Recorded pIC50 (compound Cc1ccccc1NC(=O)Oc1ccc2c(c1)[C@]1(C)CC[N@@+](C)([O-])[C@@H]1N2C ): < 5.00

* * *

IC50 values recorded for Acetylcholinesterase (Homo sapiens)
The reply should be a number in nM, with the unit left off.

Answered cases to consult:
1) CCc1ccccc1NC(=O)Oc1ccc2c(c1)[C@]1(C)CCN(C)O[C@@H]1N2C    65
2) CNC(=O)Oc1ccc2c(c1)[C@]1(C)CC[N@@+](C)([O-])[C@@H]1N2C    100
3) CN1CC[C@@]2(C)c3cc(OC(=O)Nc4ccccc4)ccc3N(C)[C@H]2O1    130

Recorded IC50 (compound CCc1ccccc1NC(=O)Oc1ccc2c(c1)[C@]1(C)CC[N@@+](C)([O-])[C@@H]1N2C ): 125
